# tgt: Acetylcholinesterase (Electrophorus electricus, UniProt O42275)
# Sequence (O42275 whole entry): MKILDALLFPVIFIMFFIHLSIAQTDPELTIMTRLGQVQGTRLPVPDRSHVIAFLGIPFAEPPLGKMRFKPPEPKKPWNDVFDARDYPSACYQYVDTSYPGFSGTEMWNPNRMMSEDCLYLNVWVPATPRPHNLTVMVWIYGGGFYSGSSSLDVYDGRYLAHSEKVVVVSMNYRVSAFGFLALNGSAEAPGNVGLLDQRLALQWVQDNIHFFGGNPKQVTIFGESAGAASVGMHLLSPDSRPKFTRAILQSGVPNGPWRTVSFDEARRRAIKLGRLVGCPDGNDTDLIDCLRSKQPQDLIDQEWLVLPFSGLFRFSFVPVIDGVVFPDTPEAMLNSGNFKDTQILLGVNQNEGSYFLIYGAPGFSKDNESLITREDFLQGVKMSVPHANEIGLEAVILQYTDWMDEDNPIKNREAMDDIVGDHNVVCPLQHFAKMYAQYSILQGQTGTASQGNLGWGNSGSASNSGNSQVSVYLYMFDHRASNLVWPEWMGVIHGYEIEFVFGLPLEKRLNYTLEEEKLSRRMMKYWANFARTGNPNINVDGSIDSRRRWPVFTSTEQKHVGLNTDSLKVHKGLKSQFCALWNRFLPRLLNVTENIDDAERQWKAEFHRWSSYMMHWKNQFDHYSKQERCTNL
Mark MET only when IC50 stays strictly below 8 µM. Values equal to the cut-off are NOT MET.

Sample answers from the record:
{"columns": ["molecule", "tgt", "labelClass"],
 "data": [
  ["CCN1CC2=C(NC(=S)NC2c2ccc(C)cc2)/C(=C/c2ccc(C)cc2)C1 (stereo not given)", "Acetylcholinesterase (Electrophorus electricus, UniProt O42275)", "MET"],
  ["CCN1CC2=C(NC(=S)NC2c2ccccc2F)/C(=C/c2ccccc2F)C1 (stereo not given)", "Acetylcholinesterase (Electrophorus electricus, UniProt O42275)", "MET"],
  ["Fc1ccc(/C=C2\\CN(CCN3CCOCC3)CC3=C2NC(=S)NC3c2ccc(F)cc2)cc1 (stereo not given)", "Acetylcholinesterase (Electrophorus electricus, UniProt O42275)", "MET"],
  ["S=C1NC2=C(CN(CCN3CCOCC3)C/C2=C\\c2ccc(Cl)cc2Cl)C(c2ccc(Cl)cc2Cl)N1 (stereo not given)", "Acetylcholinesterase (Electrophorus electricus, UniProt O42275)", "NOT MET"],
  ["CCN1CC2=C(NC(=S)NC2c2ccc(Cl)cc2)/C(=C/c2ccc(Cl)cc2)C1 (stereo not given)", "Acetylcholinesterase (Electrophorus electricus, UniProt O42275)", "MET"],
  ["S=C1NC2=C(CN(CCN3CCOCC3)C/C2=C\\c2ccccc2Cl)C(c2ccccc2Cl)N1 (stereo not given)", "Acetylcholinesterase (Electrophorus electricus, UniProt O42275)", "MET"],
  ["CCN1CC2=C(NC(=S)NC2c2ccc(Cl)cc2Cl)/C(=C/c2ccc(Cl)cc2Cl)C1 (stereo not given)", "Acetylcholinesterase (Electrophorus electricus, UniProt O42275)", "NOT MET"]
]}

# input for lookup
Is IC50 of CCN1CC2=C(NC(=S)NC2c2ccccc2C)/C(=C/c2ccccc2C)C1 (stereo not given) strictly below 8 µM?
MET

----------
# protocolText: Selectivity ratio of IC50 for electric eel AChE to IC50 for horse serum BChE
readoutLabel: Ratio IC50

Take a look at these entries with their results.
{"columns": ["compound", "Ratio IC50"],
 "data": [
  ["CCN1CC2=C(NC(=S)NC2c2ccc(C)cc2)/C(=C/c2ccc(C)cc2)C1 (centres undefined)", 1.06],
  ["S=C1NC2=C(CN(CCN3CCOCC3)C/C2=C\\c2ccccc2)C(c2ccccc2)N1 (centres undefined)", 1.39],
  ["Cc1ccccc1/C=C1\\CN(CCN2CCOCC2)CC2=C1NC(=S)NC2c1ccccc1C (centres undefined)", 4.31],
  ["Cc1ccc(/C=C2\\CN(CCN3CCOCC3)CC3=C2NC(=S)NC3c2ccc(C)cc2)cc1 (centres undefined)", 2],
  ["CCN1CC2=C(NC(=S)NC2c2ccc(F)cc2)/C(=C/c2ccc(F)cc2)C1 (centres undefined)", 0.36],
  ["Fc1ccc(/C=C2\\CN(CCN3CCOCC3)CC3=C2NC(=S)NC3c2ccc(F)cc2)cc1 (centres undefined)", 1.97],
  ["CCN1CC2=C(NC(=S)NC2c2cccc([N+](=O)[O-])c2)/C(=C/c2cccc([N+](=O)[O-])c2)C1 (centres undefined)", 1.54],
  ["S=C1NC2=C(CN(CCN3CCOCC3)C/C2=C\\c2ccc(Cl)cc2)C(c2ccc(Cl)cc2)N1 (centres undefined)", 1.28]
]}

In the following, a different compound is considered.
Sample CCN1CC2=C(NC(=S)NC2c2ccccc2)/C(=C/c2ccccc2)C1 (centres undefined) — what was its Ratio IC50?
0.22

----------
Listed compounds paired with reported pIC50
# tgt: Cholinesterase (Equus caballus)
# Sequence (P81908 whole entry): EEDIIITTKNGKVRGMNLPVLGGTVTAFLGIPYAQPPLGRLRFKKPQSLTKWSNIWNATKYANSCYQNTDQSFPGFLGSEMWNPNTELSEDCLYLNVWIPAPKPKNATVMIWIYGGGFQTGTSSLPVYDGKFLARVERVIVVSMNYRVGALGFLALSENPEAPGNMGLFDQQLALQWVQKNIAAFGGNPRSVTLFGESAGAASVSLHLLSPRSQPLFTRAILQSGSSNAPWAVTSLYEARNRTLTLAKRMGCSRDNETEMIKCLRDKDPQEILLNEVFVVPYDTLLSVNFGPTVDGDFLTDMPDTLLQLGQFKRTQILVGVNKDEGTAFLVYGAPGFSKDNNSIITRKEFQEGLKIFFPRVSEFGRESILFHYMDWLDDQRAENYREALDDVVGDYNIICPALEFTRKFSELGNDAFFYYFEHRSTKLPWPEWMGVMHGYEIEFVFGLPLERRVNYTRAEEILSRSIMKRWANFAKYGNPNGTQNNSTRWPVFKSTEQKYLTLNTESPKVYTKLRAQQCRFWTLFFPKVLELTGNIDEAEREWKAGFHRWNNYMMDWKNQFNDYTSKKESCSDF
# protocolText: Inhibition of horse serum BChE using S-butyrylthiocholine chloride as substrate preincubated for 15 mins followed by substrate addition measured after 30 mins by Ellman's microplate assay
The scale used: pIC50 is minus the common logarithm of the concentration in molar units.

Take a look at these entries with their results.
{"columns": ["compound", "pIC50"],
 "data": [
  ["CCN1CC2=C(NC(=S)NC2c2ccccc2C)/C(=C/c2ccccc2C)C1 (stereo not given)", 5.41],
  ["CCN1CC2=C(NC(=S)NC2c2ccc(Cl)cc2Cl)/C(=C/c2ccc(Cl)cc2Cl)C1 (stereo not given)", 5.44]
]}

Sample Cc1ccccc1/C=C1\CN(CCN2CCOCC2)CC2=C1NC(=S)NC2c1ccccc1C (stereo not given) — what was its pIC50?
5.72

What do we get for CCN1CC2=C(NC(=S)NC2c2ccccc2OC)/C(=C/c2ccccc2OC)C1 (stereo not given) ?
5.09

What do we get for CCN1CC2=C(NC(=S)NC2c2ccc(C)cc2)/C(=C/c2ccc(C)cc2)C1 (stereo not given) ?
5.33

What do we get for S=C1NC2=C(CN(CCN3CCOCC3)C/C2=C\c2ccccc2Cl)C(c2ccccc2Cl)N1 (stereo not given) ?
5.61

What do we get for S=C1NC2=C(CN(CCN3CCOCC3)C/C2=C\c2ccc(Cl)cc2)C(c2ccc(Cl)cc2)N1 (stereo not given) ?
5.37

What do we get for Cc1ccc(/C=C2\CN(CCN3CCOCC3)CC3=C2NC(=S)NC3c2ccc(C)cc2)cc1 (stereo not given) ?
5.45

What do we get for S=C1NC2=C(CN(CCN3CCOCC3)C/C2=C\c2ccccc2)C(c2ccccc2)N1 (stereo not given) ?
5.49

What do we get for CCN1CC2=C(NC(=S)NC2c2ccc(Cl)cc2)/C(=C/c2ccc(Cl)cc2)C1 (stereo not given) ?
5.23

----------
# protocolText: Selectivity ratio of IC50 for electric eel AChE to IC50 for horse serum BChE
readoutLabel: Ratio IC50

Take a look at these entries with their results.
{"columns": ["compound", "valueObserved"],
 "data": [
  ["CCN1CC2=C(NC(=S)NC2c2ccccc2OC)/C(=C/c2ccccc2OC)C1 (stereo not given)", 0.61],
  ["Fc1ccccc1/C=C1\\CN(CCN2CCOCC2)CC2=C1NC(=S)NC2c1ccccc1F (stereo not given)", 3.14],
  ["S=C1NC2=C(CN(CCN3CCOCC3)C/C2=C\\c2ccc(Cl)cc2Cl)C(c2ccc(Cl)cc2Cl)N1 (stereo not given)", 1.47],
  ["CCN1CC2=C(NC(=S)NC2c2ccccc2Cl)/C(=C/c2ccccc2Cl)C1 (stereo not given)", 2.3],
  ["COc1ccccc1/C=C1\\CN(CCN2CCOCC2)CC2=C1NC(=S)NC2c1ccccc1OC (stereo not given)", 1.42]
]}

Sample CCN1CC2=C(NC(=S)NC2c2ccccc2F)/C(=C/c2ccccc2F)C1 (stereo not given) — what was its Ratio IC50?
1.24

What do we get for CCN1CC2=C(NC(=S)NC2c2ccc(Cl)cc2Cl)/C(=C/c2ccc(Cl)cc2Cl)C1 (stereo not given) ?
2.42

What do we get for S=C1NC2=C(CN(CCN3CCOCC3)C/C2=C\c2ccccc2Cl)C(c2ccccc2Cl)N1 (stereo not given) ?
2.77

What do we get for CCN1CC2=C(NC(=S)NC2c2ccc(Cl)cc2)/C(=C/c2ccc(Cl)cc2)C1 (stereo not given) ?
0.22

What do we get for CCN1CC2=C(NC(=S)NC2c2ccccc2C)/C(=C/c2ccccc2C)C1 (stereo not given) ?
1.57

----------
# protocolText: Selectivity ratio of IC50 for horse serum BChE to IC50 for electric eel AChE
Mark class 1 only when Ratio IC50 stays strictly below 0.7. Values equal to the cut-off are class 0.

{"columns": ["compound", "labelClass"],
 "data": [
  ["Cc1ccc(/C=C2\\CN(CCN3CCOCC3)CC3=C2NC(=S)NC3c2ccc(C)cc2)cc1 (centres undefined)", "class 1"],
  ["Fc1ccccc1/C=C1\\CN(CCN2CCOCC2)CC2=C1NC(=S)NC2c1ccccc1F (centres undefined)", "class 1"],
  ["Cc1ccccc1/C=C1\\CN(CCN2CCOCC2)CC2=C1NC(=S)NC2c1ccccc1C (centres undefined)", "class 1"],
  ["Fc1ccc(/C=C2\\CN(CCN3CCOCC3)CC3=C2NC(=S)NC3c2ccc(F)cc2)cc1 (centres undefined)", "class 1"],
  ["CCN1CC2=C(NC(=S)NC2c2ccc(C)cc2)/C(=C/c2ccc(C)cc2)C1 (centres undefined)", "class 0"]
]}

Is Ratio IC50 of CCN1CC2=C(NC(=S)NC2c2cccc([N+](=O)[O-])c2)/C(=C/c2cccc([N+](=O)[O-])c2)C1 (centres undefined) strictly below 0.7?
class 1

What do we get for S=C1NC2=C(CN(CCN3CCOCC3)C/C2=C\c2ccccc2Cl)C(c2ccccc2Cl)N1 (centres undefined) ?
class 1

What do we get for CCN1CC2=C(NC(=S)NC2c2ccc(Cl)cc2)/C(=C/c2ccc(Cl)cc2)C1 (centres undefined) ?
class 0

What do we get for CCN1CC2=C(NC(=S)NC2c2ccccc2)/C(=C/c2ccccc2)C1 (centres undefined) ?
class 0

What do we get for CCN1CC2=C(NC(=S)NC2c2ccc(Cl)cc2Cl)/C(=C/c2ccc(Cl)cc2Cl)C1 (centres undefined) ?
class 1

What do we get for CCN1CC2=C(NC(=S)NC2c2ccccc2C)/C(=C/c2ccccc2C)C1 (centres undefined) ?
class 1

What do we get for CCN1CC2=C(NC(=S)NC2c2ccccc2OC)/C(=C/c2ccccc2OC)C1 (centres undefined) ?
class 0
